- assay-explanation: 4-h oral plasma pharmacokinetics and tissue distribution, male wild-type and ABC transporter knockout mice
- Assay type: in vivo
- condition-context: male, FVB, mouse, brain, po, 10 mg/kg, male Abcg2−/− mice, 10 mg/kg oral, 4 h; read-out: Brain-to-plasma ratio
measurement-type: Kp at 4 h

C[C@H]1CNC(=O)c2cnn3ccc(nc23)N[C@H](C)c2cc(F)ccc2O1 ... 0.14

###

- assay-explanation: 8-h oral plasma pharmacokinetics and tissue distribution, female wild-type, Cyp3a−/− and Cyp3aXAV mice
- Type: in vivo
- condition-context: female, FVB, mouse, brain, po, 10 mg/kg, female wild-type mice, 10 mg/kg oral, 8 h; read-out: Cbrain
measurement-type: concentration at 8 h (ng/g)

C[C@H]1CNC(=O)c2cnn3ccc(nc23)N[C@H](C)c2cc(F)ccc2O1 ... 51.2

###

- assay-explanation: 8-h oral plasma pharmacokinetics and tissue distribution, female wild-type, Cyp3a−/− and Cyp3aXAV mice
- Assay type: in vivo
- condition-context: female, FVB, mouse, plasma, po, 10 mg/kg, elimination half-life; female Cyp3a−/− mice, 10 mg/kg oral, 8 h
measurement-type: half-life (h)

C[C@H]1CNC(=O)c2cnn3ccc(nc23)N[C@H](C)c2cc(F)ccc2O1 [repotrectinib] ... 2.5

###

- assay-explanation: 8-h pilot oral plasma pharmacokinetics and tissue distribution, female wild-type, Abcb1a/1b;Abcg2−/− and Oatp1a/1b−/− mice
- Type: in vivo
- condition-context: >99% FVB background, mouse, plasma; female wild-type and Abcb1a/1b;Abcg2−/− mice, 10 mg/kg oral, 8-h pilot; read-out: time of peak plasma concentrations after dosing (converted)
measurement-type: Tmax (min)

C[C@H]1CNC(=O)c2cnn3ccc(nc23)N[C@H](C)c2cc(F)ccc2O1 ... 30

###

- assay-explanation: 8-h pilot oral plasma pharmacokinetics and tissue distribution, female wild-type, Abcb1a/1b;Abcg2−/− and Oatp1a/1b−/− mice
- Format: in vivo
- condition-context: female, FVB, mouse, liver, po, 10 mg/kg, Table S1; female Oatp1a/1b−/− mice, 10 mg/kg oral, 8 h; read-out: Cliver
- Excerpt: Mice with similar average ages (and body weights) were randomly allocated in experimental groups as far as possible. […] Given the objective main readout (repotrectinib plasma and tissue concentrations as measured by LC-MS/MS), no blinding method was applied. […] A sensitive and specific liquid chromatography-tandem mass spectrometry method using protein precipitation pre-treatment was adopted to quantify the concentration of repotrectinib in DMEM medium, plasma samples and tissue homogenates. […]
measurement-type: concentration at 8 h

C[C@H]1CNC(=O)c2cnn3ccc(nc23)N[C@H](C)c2cc(F)ccc2O1 ... 1750 ng/mL

###

- assay-explanation: 2-h oral plasma pharmacokinetics and tissue distribution, male wild-type and Oatp1a/1b−/− mice
- Type: in vivo
- condition-context: Oatp1a/1b−/− (>99% FVB background), mouse, plasma, male Oatp1a/1b−/− mice, 10 mg/kg oral, read-out: AUC0–2h
- From the text: Mice with similar average ages (and body weights) were randomly allocated in experimental groups as far as possible. […] Given the objective main readout (repotrectinib plasma and tissue concentrations as measured by LC-MS/MS), no blinding method was applied. […] A sensitive and specific liquid chromatography-tandem mass spectrometry method using protein precipitation pre-treatment was adopted to quantify the concentration of repotrectinib in DMEM medium, plasma samples and tissue homogenates. […]
measurement-type: AUC(0-t) (ng·h/mL)

C[C@H]1CNC(=O)c2cnn3ccc(nc23)N[C@H](C)c2cc(F)ccc2O1 [repotrectinib] ... 8960

###

- assay-explanation: 8-h pilot oral plasma pharmacokinetics and tissue distribution, female wild-type, Abcb1a/1b;Abcg2−/− and Oatp1a/1b−/− mice
- Assay type: in vivo
- condition-context: female, FVB, mouse, plasma, po, 10 mg/kg, Table S1; female Abcb1a/1b;Abcg2−/− mice, 10 mg/kg oral, 8 h
measurement-type: Cmax (ng/mL)

C[C@H]1CNC(=O)c2cnn3ccc(nc23)N[C@H](C)c2cc(F)ccc2O1 ... 6190

###

- assay-explanation: 4-h oral plasma pharmacokinetics and tissue distribution, male wild-type and ABC transporter knockout mice
- Assay type: in vivo
- condition-context: male, FVB, mouse, plasma, po, 10 mg/kg, median (range); male Abcb1a/1b;Abcg2−/− mice, 10 mg/kg oral, 4 h
measurement-type: Tmax (h)

C[C@H]1CNC(=O)c2cnn3ccc(nc23)N[C@H](C)c2cc(F)ccc2O1 [repotrectinib] ... 1

###

- assay-explanation: 4-h oral plasma pharmacokinetics and tissue distribution, male wild-type and ABC transporter knockout mice
- Format: in vivo
- condition-context: male, FVB, mouse, plasma, po, 10 mg/kg, male Abcb1a/1b−/− mice, 10 mg/kg oral, 4 h; read-out: AUC0–4h
measurement-type: AUC(0-t) (ng·h/mL)

C[C@H]1CNC(=O)c2cnn3ccc(nc23)N[C@H](C)c2cc(F)ccc2O1 ... 9200

###

- assay-explanation: 8-h oral plasma pharmacokinetics and tissue distribution, female wild-type, Cyp3a−/− and Cyp3aXAV mice
- Type: in vivo
- condition-context: female, FVB, mouse, brain, po, 10 mg/kg, female Cyp3a−/− mice, 10 mg/kg oral, 8 h; read-out: Cbrain
measurement-type: concentration at 8 h

C[C@H]1CNC(=O)c2cnn3ccc(nc23)N[C@H](C)c2cc(F)ccc2O1 ... 213 ng/g

###

- assay-explanation: 2-h oral plasma pharmacokinetics and tissue distribution, male wild-type and Oatp1a/1b−/− mice
- Type: in vivo
- condition-context: FVB, mouse, small intestine with content, male wild-type mice, 10 mg/kg oral, read-out: CSIWC
measurement-type: concentration at 2 h (ng/g)

C[C@H]1CNC(=O)c2cnn3ccc(nc23)N[C@H](C)c2cc(F)ccc2O1 ... 84700

###

- assay-explanation: 4-h oral plasma pharmacokinetics and tissue distribution, male wild-type and ABC transporter knockout mice
- Format: in vivo
- condition-context: male, FVB, mouse, brain, po, 10 mg/kg, male wild-type mice, 10 mg/kg oral, 4 h; read-out: Brain-to-plasma ratio
measurement-type: Kp at 4 h

C[C@H]1CNC(=O)c2cnn3ccc(nc23)N[C@H](C)c2cc(F)ccc2O1 [repotrectinib] ... 0.15

###

- assay-explanation: 8-h oral plasma pharmacokinetics and tissue distribution, female wild-type, Cyp3a−/− and Cyp3aXAV mice
- Assay type: in vivo
- condition-context: female, FVB, mouse, plasma, po, 10 mg/kg, female wild-type mice, 10 mg/kg oral, 8 h
measurement-type: Cmax (ng/mL)

C[C@H]1CNC(=O)c2cnn3ccc(nc23)N[C@H](C)c2cc(F)ccc2O1 ... 4800

###

- assay-explanation: 4-h oral plasma pharmacokinetics and tissue distribution, male wild-type and ABC transporter knockout mice
- Type: in vivo
- condition-context: male, FVB, mouse, liver, po, 10 mg/kg, male wild-type mice, 10 mg/kg oral, 4 h; read-out: Liver-to-plasma ratio
measurement-type: Kp at 4 h

C[C@H]1CNC(=O)c2cnn3ccc(nc23)N[C@H](C)c2cc(F)ccc2O1 [repotrectinib] ... 10.5

###

- assay-explanation: Oral plasma pharmacokinetics compared across experiments and mouse strains
- Assay type: in vivo, mice
- condition-context: plasma, 10 mg/kg; all tested mouse strains, oral administration
measurement-type: Tmax

C[C@H]1CNC(=O)c2cnn3ccc(nc23)N[C@H](C)c2cc(F)ccc2O1 [repotrectinib] ... ~30 min

###

- assay-explanation: 4-h oral plasma pharmacokinetics and tissue distribution, male wild-type and Oatp1a/1b−/− mice
- Type: in vivo
- condition-context: male, FVB, mouse, testis, po, 10 mg/kg, Table S2, male wild-type mice, 10 mg/kg oral, read-out: Ctestis
measurement-type: concentration at 4 h (ng/g)

C[C@H]1CNC(=O)c2cnn3ccc(nc23)N[C@H](C)c2cc(F)ccc2O1 ... 155

###

- assay-explanation: 4-h oral plasma pharmacokinetics and tissue distribution, male wild-type and Oatp1a/1b−/− mice
- Assay type: in vivo
- condition-context: male, FVB, mouse, plasma, po, 10 mg/kg, Table S2, male wild-type mice, 10 mg/kg oral, read-out: AUC0-4h
measurement-type: AUC(0-t) (ng·h/mL)

C[C@H]1CNC(=O)c2cnn3ccc(nc23)N[C@H](C)c2cc(F)ccc2O1 [repotrectinib] ... 6990

###

- assay-explanation: 4-h oral plasma pharmacokinetics and tissue distribution, male wild-type and ABC transporter knockout mice
- Type: in vivo
- condition-context: male, FVB, mouse, testis, po, 10 mg/kg, male Abcb1a/1b;Abcg2−/− mice, 10 mg/kg oral, 4 h; read-out: Testis-to-plasma ratio
measurement-type: Kp at 4 h

C[C@H]1CNC(=O)c2cnn3ccc(nc23)N[C@H](C)c2cc(F)ccc2O1 ... 1.35

###

- assay-explanation: 4-h oral plasma pharmacokinetics and tissue distribution, male wild-type and ABC transporter knockout mice
- Format: in vivo
- condition-context: male, FVB, mouse, testis, po, 10 mg/kg, male wild-type mice, 10 mg/kg oral, 4 h; read-out: Ctestis
measurement-type: concentration at 4 h (ng/g)

C[C@H]1CNC(=O)c2cnn3ccc(nc23)N[C@H](C)c2cc(F)ccc2O1 [repotrectinib] ... 155

# credit: paper PMC8619046
